# koff annotations
- ASSAY TARGET: T1, recombinant human ASM protein (human, UniProt P17405 47-630)
- T1 construct: Recombinant human ASM in solution; also called acid sphingomyelinase (ASM) protein
- T1 sequence: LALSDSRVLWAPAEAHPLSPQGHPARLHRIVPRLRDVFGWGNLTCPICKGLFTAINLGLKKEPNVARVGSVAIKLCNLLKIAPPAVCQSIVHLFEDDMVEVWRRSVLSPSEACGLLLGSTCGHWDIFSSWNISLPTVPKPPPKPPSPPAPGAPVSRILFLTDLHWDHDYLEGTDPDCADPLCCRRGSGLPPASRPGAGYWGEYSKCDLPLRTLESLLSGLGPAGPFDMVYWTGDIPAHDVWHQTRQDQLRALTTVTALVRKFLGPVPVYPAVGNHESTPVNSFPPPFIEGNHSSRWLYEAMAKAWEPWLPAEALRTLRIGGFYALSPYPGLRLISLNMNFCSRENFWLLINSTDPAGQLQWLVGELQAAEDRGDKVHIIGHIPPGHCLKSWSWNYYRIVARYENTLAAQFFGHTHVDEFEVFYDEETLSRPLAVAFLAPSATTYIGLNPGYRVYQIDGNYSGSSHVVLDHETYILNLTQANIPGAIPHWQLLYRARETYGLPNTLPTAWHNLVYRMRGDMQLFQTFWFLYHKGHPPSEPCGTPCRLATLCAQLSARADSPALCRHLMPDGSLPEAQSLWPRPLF
- TEST METHOD NOTES: BLI (Octet), antibody on AHC sensor
State the answer as a number, implicitly in s⁻¹.

Here are 2 binders together with their reported answers.
#9104v-H05 (antibody, human IgG4 S228P, lambda, V domains shown, Full-length IgG, lambda) VH: EVQLLESGGGLVQPGGSLRLSCAASGFTFSNYYMSWVRQAPGKGLEWVSGIYYGGVKIYYADSVKGRFTISRDNSKNTLYLQMNSLRAEDTAVYYCARDTPGFDYWGQGTLVTVSS VL: QSVLTQPPSASGTPGQRVTISCTGSSSNIGNNAVNWYQQLPGTAPKLLIYYDSHRPSGVPDRFSGSKSGTSASLAISGLRSEDEADYYCGAWDYSLSAYVFGGGTKLTVLG: 0.000177
#9104v-H22 (antibody, human IgG4 S228P, lambda, V domains shown, Full-length IgG, lambda) VH: EVQLLESGGGLVQPGGSLRLSCAASGFTFSNYYMSWVRQAPGKGLEWVSGLYYGGGTPYYADSVKGRFTISRDNSKNTLYLQMNSLRAEDTAVYYCARDTPGFDYWGQGTLVTVSS VL: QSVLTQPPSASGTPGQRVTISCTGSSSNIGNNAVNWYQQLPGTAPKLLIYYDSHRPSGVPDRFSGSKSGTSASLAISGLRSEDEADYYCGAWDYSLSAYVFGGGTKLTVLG: 0.000157

Notebook: #9104v-H24 (antibody, human IgG4 S228P, lambda, V domains shown, Full-length IgG, lambda) VH: EVQLLESGGGLVQPGGSLRLSCAASGFTFSNYYMSWVRQAPGKGLEWVSGLYYGSGIPYYADSVKGRFTISRDNSKNTLYLQMNSLRAEDTAVYYCARDTPGFDYWGQGTLVTVSS VL: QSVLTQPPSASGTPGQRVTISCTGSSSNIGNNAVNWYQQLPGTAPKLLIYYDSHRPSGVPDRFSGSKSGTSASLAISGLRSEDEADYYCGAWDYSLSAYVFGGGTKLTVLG , koff read as 0.000206

Data origin: patent US20260201064A1
